tested system: C-Raf kinase (SEQ ID NO: 2) (Homo sapiens, UniProt P04049, Y340D/Y341D)
Construct: C-Raf residues 306-end; Y340D, Y341D with; GST (N); purchased Sigma
Sequence (P04049 307-648 Y340D/Y341D): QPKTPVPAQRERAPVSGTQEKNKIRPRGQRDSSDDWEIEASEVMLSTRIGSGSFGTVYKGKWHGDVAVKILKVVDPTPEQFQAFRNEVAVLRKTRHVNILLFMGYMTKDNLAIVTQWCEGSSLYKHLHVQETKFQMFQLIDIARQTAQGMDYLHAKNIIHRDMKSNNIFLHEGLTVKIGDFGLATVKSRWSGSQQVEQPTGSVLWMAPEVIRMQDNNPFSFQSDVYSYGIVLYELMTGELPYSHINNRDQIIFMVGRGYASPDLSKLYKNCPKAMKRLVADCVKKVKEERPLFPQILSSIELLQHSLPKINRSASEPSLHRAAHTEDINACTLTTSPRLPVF
protocol text: Biochemical Assay for C-Raf (coupled pyruvate kinase/lactate dehydrogenase assay)
assay conditions: 1 mM ATP; read-out: CRAF (inhibition of biochemical activity, IC50)
pIC50: −log10 of the molar value.
observable: pIC50

Find the measured pIC50 of Cc1ccc(NC(=O)c2cc3c(nn2)CCC3)cc1-c1ccnc(-c2ccnc(NC(=O)C3CC3)c2)c1 and report it.
> 7.00

Find the measured pIC50 of Cc1ccc(NC(=O)c2ccc(C(F)F)nc2)cc1-c1ccnc(-c2ccnc(NC(=O)C3CC3)c2)n1 and report it.
> 7.00

Find the measured pIC50 of Cc1ccc(NC(=O)c2cncc(C(F)(F)F)n2)cc1-c1cncc(-c2ccnc(NC(=O)C3CC3)c2)c1 and report it.
> 7.00

Find the measured pIC50 of Cc1ccc(NC(=O)c2cc(Br)cnn2)cc1-c1ccnc(-c2ccnc(NC(=O)C3CC3)c2)c1 and report it.
> 7.00

Find the measured pIC50 of Cc1ccc(NC(=O)c2cc(C3CC3)cnn2)cc1-c1ccnc(-c2ccoc2)c1 and report it.
6.30 to 7.00

Find the measured pIC50 of Cc1ccc(NC(=O)c2cc(C(F)(F)F)cnn2)cc1-c1cc(N[C@H](C)CO)nc(-c2cn[nH]c2C)c1 and report it.
> 7.00

Find the measured pIC50 of Cc1ccc(NC(=O)c2cc(OC(F)F)cnn2)cc1-c1ccnc(-c2ccnc(NC(=O)C3CC3)c2)c1 and report it.
> 7.00

Find the measured pIC50 of Cc1ccc(NC(=O)c2cnc(C(F)(F)F)cn2)cc1-c1ccnc(-c2ccnc(NC(=O)C3CC3)c2)c1 and report it.
> 7.00

Find the measured pIC50 of Cc1ccc(NC(=O)c2ccc(C(F)(F)F)nc2)cc1-c1cncc(-c2cc(NC(=O)C3CC3)ncn2)c1 and report it.
> 7.00

Find the measured pIC50 of Cc1ccc(NC(=O)c2cc(C(F)(F)F)cnn2)cc1-c1cc(N[C@H](C)CO)cc(-c2cc(NC(=O)C3CC3)ncn2)c1 and report it.
> 7.00

Find the measured pIC50 of Cc1ccc(NC(=O)c2ccc(C(F)(F)F)nn2)cc1-c1cncc(-c2cc(NC(=O)C3CC3)ncn2)c1 and report it.
> 7.00

Find the measured pIC50 of Cc1ccc(NC(=O)c2cc(C3CC3)cnn2)cc1-c1cc(OCCO)nc(-c2ccnc(NC(=O)C3CC3)c2)c1 and report it.
> 7.00

Find the measured pIC50 of Cc1ccc(NC(=O)c2cc(C(F)(F)F)cnn2)cc1-c1ccnc(-c2ccnc(NC(=O)CC3(C)CC3)c2)c1 and report it.
6.30 to 7.00

Find the measured pIC50 of Cc1ccc(NC(=O)c2cc(C(C)(F)F)cnn2)cc1-c1ccnc(-c2cncn2C)c1 and report it.
> 7.00

Find the measured pIC50 of COC(=O)Nc1cc(-c2cc(-c3cc(NC(=O)c4ccc(C(F)(F)F)nc4)ccc3C)cc(OCCO)n2)ccn1 and report it.
> 7.00

Find the measured pIC50 of Cc1ccc(NC(=O)c2ccc(C(F)(F)F)nc2)cc1-c1cncc(-c2cc(N)ncn2)c1 and report it.
6.00 to 6.30

Find the measured pIC50 of Cc1ccc(NC(=O)c2cncc(C(C)(F)F)c2)cc1-c1cncc(-c2cc(NC(=O)C3CC3)ncn2)c1 and report it.
> 7.00

Find the measured pIC50 of Cc1ccc(NC(=O)c2cc(C(C)(F)F)cnn2)cc1-c1ccnc(-c2cscn2)c1 and report it.
5.00 to 6.00

Find the measured pIC50 of CC(=O)Nc1cc(-c2cc(-c3cc(NC(=O)c4ccc(C(F)(F)F)nc4)ccc3C)cn(C)c2=O)ccn1 and report it.
> 7.00

Find the measured pIC50 of Cc1ccc(NC(=O)c2cncc(C(F)(F)F)n2)cc1-c1ccnc(-c2ccnc(NC(=O)C3CC3)c2)c1 and report it.
> 7.00

Find the measured pIC50 of COC(=O)Nc1cc(-c2cc(-c3cc(NC(=O)c4ccc(C(F)(F)F)nc4)c(F)cc3C)nc(C)n2)ccn1 and report it.
6.00 to 6.30

Find the measured pIC50 of Cc1cc(-c2cc(NC(=O)c3cc(C(F)(F)F)cnn3)cnc2C)cc(-c2ccnc(NC(=O)C3CC3)c2)n1 and report it.
> 7.00

Find the measured pIC50 of COC(=O)Nc1cc(-c2ccnc(-c3cc(NC(=O)c4ccc(C(F)(F)F)nc4)ccc3C)n2)ccn1 and report it.
> 7.00

Find the measured pIC50 of Cc1ccc(NC(=O)c2cncc(C(C)(C)C#N)c2)cc1-c1ccnc(-c2ccnc(NC(=O)C3CC3)c2)c1 and report it.
> 7.00

====

Test system: Pa16c cells
protocol text: Pa16c Cell Proliferation Assay
Format: cell-based
assay conditions: Table 2, read-out: Inhibition of cell proliferation in Pa16c (IC50 class)
pIC50: −log10 of the molar value.
observable: pIC50

Find the measured pIC50 of CC(=N)Nc1cc(-c2cc(-c3cc(NC(=O)c4cc(C(F)(F)F)cnn4)ccc3C)ccn2)ccn1 and report it.
5.00 to 6.00

Find the measured pIC50 of CNc1cc(-c2cc(NC(=O)c3cc(C(F)(F)F)cnn3)ccc2C)cc(-c2ccnc(NC(=O)C3CC3)c2)n1 and report it.
> 7.00

Find the measured pIC50 of Cc1cc(F)c(NC(=O)c2cc(C(F)(F)F)cnn2)cc1-c1ccnc(-c2ccnc(NC(=O)C3CC3)c2)c1 and report it.
5.00 to 6.00

Find the measured pIC50 of Cc1ccc(NC(=O)c2cc(C(F)(F)F)cnn2)cc1-c1ccnc(-c2cscn2)c1 and report it.
6.30 to 7.00

====

Tested on: MiaPaca-2 cells
protocol text: MiaPaca-2 Cell Proliferation Assay
Format: cell-based
assay conditions: Homo sapiens, MIA PaCa-2, MiaPaca-2 cells; Table 2; read-out: Inhibition of cell proliferation in MiaPaca-2 (IC50 class)
pIC50: −log10 of the molar value.
observable: pIC50

Find the measured pIC50 of Cc1ccc(NC(=O)c2cncc(C(F)(F)F)n2)cc1-c1cncc(-c2cc(NC(=O)C3CC3)ncn2)c1 and report it.
5.00 to 6.00

Find the measured pIC50 of Cc1ccc(NC(=O)c2cc(C(F)(F)F)cnn2)cc1-c1cc(N[C@H](C)CO)nc(-c2cn[nH]c2C)c1 and report it.
> 7.00

Find the measured pIC50 of COCC(=O)Nc1cc(-c2cncc(-c3cc(NC(=O)c4ccc(C(F)F)nc4)ccc3C)n2)ccn1 and report it.
5.00 to 6.00

Find the measured pIC50 of CNc1cc(-c2cc(-c3cc(NC(=O)c4cc(C(F)(F)F)cnn4)ccc3C)ccn2)ccn1 and report it.
> 7.00

Find the measured pIC50 of Cc1ccc(NC(=O)c2cc(C(F)(F)F)cnn2)cc1-c1cncc(-c2cc(NC=O)ncn2)c1 and report it.
6.30 to 7.00

Find the measured pIC50 of COCC(=O)Nc1cc(-c2nccc(-c3cc(NC(=O)c4cc(C(F)(F)F)cnn4)ccc3C)n2)ccn1 and report it.
5.00 to 6.00
